experiment: in vitro; conditions: human, HEK293 viability
parameter: viability (%)
Dear colleague, please return just the value in %, with no unit written.

Prompt line: Using the record for Fc1ccc(C(c2ccc(F)cc2)N2CCN(C/C=C/c3ccccc3)CC2)cc1 [Flunarizine] , report its viability.
Response line: 92.6

###

assay: in vitro; conditions: human, HEK293 viability, dose 3.1 µM; individual replicate (Rep)
parameter: viability (%)
Unit % implied. Number only.

Prompt line: Reported viability, compound C=C(C)[C@H]1Cc2c(ccc3c2O[C@@H]2COc4cc(OC)c(OC)cc4[C@@H]2C3=O)O1 [Rotenone, reference compound] : ____
Response line: 46.6

###

target: C. elegans (N2) complex I (NADH:ubiquinone oxidoreductase) (Caenorhabditis elegans, UniProt P24887+Q93873+Q94360); assay: biochemical; format: biochemical; details: log10 of IC50 in µM; C. elegans mitochondria
Sequence (Q94360 17-199): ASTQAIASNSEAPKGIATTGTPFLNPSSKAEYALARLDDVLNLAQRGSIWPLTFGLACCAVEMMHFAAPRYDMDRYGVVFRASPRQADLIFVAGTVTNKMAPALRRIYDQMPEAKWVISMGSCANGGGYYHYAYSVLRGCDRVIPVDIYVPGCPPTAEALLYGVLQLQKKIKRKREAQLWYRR
Sequence (P24887 whole entry): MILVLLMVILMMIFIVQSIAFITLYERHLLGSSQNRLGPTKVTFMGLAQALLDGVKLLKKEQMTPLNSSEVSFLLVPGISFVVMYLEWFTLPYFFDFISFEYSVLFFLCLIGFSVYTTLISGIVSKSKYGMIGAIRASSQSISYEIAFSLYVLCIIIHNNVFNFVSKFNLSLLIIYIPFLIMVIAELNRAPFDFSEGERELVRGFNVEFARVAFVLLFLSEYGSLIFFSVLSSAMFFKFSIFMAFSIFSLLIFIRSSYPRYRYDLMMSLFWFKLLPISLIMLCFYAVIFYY
Sequence (Q93873 31-482): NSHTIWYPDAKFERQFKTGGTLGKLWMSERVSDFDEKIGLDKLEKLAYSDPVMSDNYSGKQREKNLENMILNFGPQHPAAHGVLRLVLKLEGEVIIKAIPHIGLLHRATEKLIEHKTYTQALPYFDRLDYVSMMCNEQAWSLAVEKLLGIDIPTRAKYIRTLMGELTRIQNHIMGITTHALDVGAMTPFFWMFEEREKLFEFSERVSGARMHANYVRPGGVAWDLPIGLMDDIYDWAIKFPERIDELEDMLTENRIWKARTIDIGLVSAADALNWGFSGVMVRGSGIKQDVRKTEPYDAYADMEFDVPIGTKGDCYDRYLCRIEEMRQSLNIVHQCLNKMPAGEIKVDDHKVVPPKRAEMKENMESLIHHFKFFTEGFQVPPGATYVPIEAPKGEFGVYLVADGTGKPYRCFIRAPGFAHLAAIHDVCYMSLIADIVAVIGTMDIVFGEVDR
Param threshold (0.4 µM) applies to Log IC50 C. elegans complex I; output Y when value >= threshold, N when value < threshold.

[
  {
    "compound": "Cc1ccc(OCCn2cnc3ccccc32)cc1",
    "label_value": "Y"
  },
  {
    "compound": "c1ccc(CCCCCCCCCCc2nc3ccccc3[nH]2)cc1",
    "label_value": "N"
  },
  {
    "compound": "CCc1cc(OCCn2cnc3ccccc32)ccc1Cl",
    "label_value": "Y"
  },
  {
    "compound": "Nc1nc2ccccc2n1Cc1ccc(Br)cc1",
    "label_value": "N"
  },
  {
    "compound": "Cc1ccccc1OCCCCn1cnc2ccccc21",
    "label_value": "N"
  },
  {
    "compound": "CC(C)Oc1cccc(OCCn2cnc3ccccc32)c1",
    "label_value": "Y"
  }
]

Prompt line: Answer whether Log IC50 C. elegans complex I of Cc1nc2ccccc2n1Cc1ccc(Br)cc1 is greater than or equal to 0.4 µM.
Response line: N

Prompt line: Could you verify whether the entry Cc1ccc(C(C)C)c(OCC(O)Cn2cnc3ccccc32)c1 (stereo not drawn) shows Log IC50 C. elegans complex I of no less than 0.4 µM?
Response line: N

Prompt line: State whether the measured Log IC50 C. elegans complex I reaches 0.4 µM, counting equality as reaching it, for Brc1ccc(Cn2cnc3ccccc32)cc1
Response line: N

Prompt line: Exam item: decide whether the reported Log IC50 C. elegans complex I for CCn1c(C(C)c2ccc(CC(C)C)cc2)nc2ccccc21 (stereo not drawn) is at least 0.4 µM.
Response line: N

###

activity at 0.313 µM for assorted molecules
biological target: B. taurus (heart) complex I (Bos taurus, UniProt P03887+P17694+P42026); assay: biochemical; format: biochemical; settings: Dose 0.313 µM; read-out: B. taurus mitochondrial complex I activity
Sequence (P03887 whole entry): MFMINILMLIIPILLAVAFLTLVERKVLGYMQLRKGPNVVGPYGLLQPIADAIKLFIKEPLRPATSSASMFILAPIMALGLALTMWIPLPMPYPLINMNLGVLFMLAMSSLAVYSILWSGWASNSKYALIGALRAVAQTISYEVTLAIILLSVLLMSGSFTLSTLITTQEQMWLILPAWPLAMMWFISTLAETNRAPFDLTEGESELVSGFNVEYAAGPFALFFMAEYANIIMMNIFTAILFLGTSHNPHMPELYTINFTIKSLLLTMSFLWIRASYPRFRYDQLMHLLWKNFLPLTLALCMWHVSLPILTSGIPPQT
Sequence (P17694 34-463): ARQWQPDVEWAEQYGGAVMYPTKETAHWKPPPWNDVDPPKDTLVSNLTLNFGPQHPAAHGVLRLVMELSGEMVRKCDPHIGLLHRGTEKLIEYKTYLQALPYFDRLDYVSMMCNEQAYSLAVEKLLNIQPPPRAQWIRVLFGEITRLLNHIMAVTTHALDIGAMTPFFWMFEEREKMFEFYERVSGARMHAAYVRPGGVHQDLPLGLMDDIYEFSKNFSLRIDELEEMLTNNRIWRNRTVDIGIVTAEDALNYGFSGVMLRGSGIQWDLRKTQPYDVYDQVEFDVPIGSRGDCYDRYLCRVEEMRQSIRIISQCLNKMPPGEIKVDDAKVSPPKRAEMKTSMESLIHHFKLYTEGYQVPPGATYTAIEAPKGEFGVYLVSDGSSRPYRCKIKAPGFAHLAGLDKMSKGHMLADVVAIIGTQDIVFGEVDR
Sequence (P42026 38-216): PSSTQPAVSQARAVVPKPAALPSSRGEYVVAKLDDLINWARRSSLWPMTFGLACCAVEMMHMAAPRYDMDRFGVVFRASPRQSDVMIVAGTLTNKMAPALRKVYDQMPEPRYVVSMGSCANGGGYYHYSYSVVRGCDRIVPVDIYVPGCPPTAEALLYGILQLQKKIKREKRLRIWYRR
Please make sure the unit comes right after the number.

[
  {
    "structure_as_smiles": "Clc1ccc(OCCn2cnc3ccccc32)c(Cl)c1",
    "activity at 0.313 µM": "88%"
  }
]

Prompt line: Data request, read-out activity at 0.313 µM, for Cc1nc2ccccc2n1CCOc1ccccc1
Response line: 92.8%

Prompt line: Report activity at 0.313 µM for Brc1ccccc1OCCCCn1cnc2ccccc21 please.
Response line: 74.3%

###

tested on: anthelmintic/nematicide-resistant C. elegans mutant strains; assay: microbe, parasite or virus in culture; conditions: Caenorhabditis elegans, read-out: C. elegans Development & Viability LC50, acr-23(ok2804)
parameter: LC50 (µM)
Give the number; µM is assumed, so skip it.

[
  {
    "molecule": "Cc1nc2ccccc2n1Cc1ccc(Cl)cc1",
    "LC50 (µM)": 34.9
  },
  {
    "molecule": "C=C(C)[C@H]1Cc2c(ccc3c2O[C@@H]2COc4cc(OC)c(OC)cc4[C@@H]2C3=O)O1 [Rotenone, reference compound]",
    "LC50 (µM)": 2.1
  }
]

Prompt line: What value of LC50 has been recorded for this entry: Cc1ccccc1OCCCCn1cnc2ccccc21
Response line: 50.2

###

Recorded C. elegans L1 relative motility, 3-hour post 200 µM KCN dilution values (L1 wild-type C. elegans) are given below.

Study these solved cases before continuing.
[
  {
    "molecule": "O=C(/C=C/c1ccccc1)/C=C/c1ccccc1",
    "test_value": 0.000
  },
  {
    "molecule": "Cc1cc(O)c(C(=O)/C=C/c2ccc(C(C)C)cc2)c(=O)o1",
    "test_value": 0.078
  },
  {
    "molecule": "O=C(NCCc1ccc(Cl)cc1)c1ccccc1C(F)(F)F",
    "test_value": 0.985
  }
]

Prompt line: Quick one: C. elegans L1 relative motility, 3-hour post 200 µM KCN dilution of O=C1OC(c2ccccc2)=NC1=CC=Cc1ccccc1 (mixture of isomers) ?
Response line: 0.014

###

assay: in vitro; details: human, HEK293 cells (Flp-In-293), HEK293 viability, Dose 6.25 µM
This listing pairs molecules with measured viability at 2 days, 6.25 µM.
Use % as the unit, but write only the number.

[
  {
    "molecule": "Cc1nc2ccccc2n1CCOc1ccccc1 [Compound 5550112]",
    "parameter": "viability at 2 days, 6.25 µM",
    "readout_units": "%",
    "test_value": 98.3
  },
  {
    "molecule": "Cc1nc2ccccc2n1Cc1ccc(Cl)c(Cl)c1 [Compound 5655567]",
    "parameter": "viability at 2 days, 6.25 µM",
    "readout_units": "%",
    "test_value": 100
  },
  {
    "molecule": "Nc1nc2ccccc2n1Cc1ccc(Cl)cc1 [Compound 5652765]",
    "parameter": "viability at 2 days, 6.25 µM",
    "readout_units": "%",
    "test_value": 94
  },
  {
    "molecule": "Cc1cccc(OCCn2c(C)nc3ccccc32)c1 [Compound 6285199]",
    "parameter": "viability at 2 days, 6.25 µM",
    "readout_units": "%",
    "test_value": 100
  },
  {
    "molecule": "Nc1nc2ccccc2n1CCOc1ccc(Br)cc1 [Compound 5842535]",
    "parameter": "viability at 2 days, 6.25 µM",
    "readout_units": "%",
    "test_value": 82.9
  },
  {
    "molecule": "Cc1ccc(C(C)C)c(OCC(O)Cn2cnc3ccccc32)c1 (centres unmarked) [Compound 6093301]",
    "parameter": "viability at 2 days, 6.25 µM",
    "readout_units": "%",
    "test_value": 92.9
  }
]

Prompt line: // returns reported viability at 2 days, 6.25 µM for input Clc1ccccc1OCCCCn1cnc2ccccc21 [Compound 7925804]
Response line: 99.5

Prompt line: I would be grateful if you could share the reported viability at 2 days, 6.25 µM for Cc1ccc(SCCCCn2cnc3ccccc32)cc1 [Compound 7925333] .
Response line: 97

Prompt line: Entry Cc1ccc(OCCn2cnc3ccccc32)c(C)c1 [Compound 7706808] : reported viability at 2 days, 6.25 µM = ?
Response line: 100

Prompt line: Given the entry FC(F)(F)c1cccc(OCCCCn2cnc3ccccc32)c1 [Compound 7925004] , report its measured viability at 2 days, 6.25 µM.
Response line: 99.5

Prompt line: Query (molecule): CC(C)Oc1cccc(OCCn2cnc3ccccc32)c1 [Compound 7926496] ; field requested: viability at 2 days, 6.25 µM
Response line: 97.4

Prompt line: What does the data say about its viability at 2 days, 6.25 µM? Entry: Cc1ccc(SCCCn2cnc3ccccc32)cc1 [Compound 7926035]
Response line: 96.6

Prompt line: # lookup: viability at 2 days, 6.25 µM of CCc1cc(OCCn2cnc3ccccc32)ccc1Cl [Compound 7925288]
Response line: 96.8

Prompt line: Consider the molecule shown here: Clc1ccc(SCCCCn2cnc3ccccc32)cc1 [Compound 7925515] What is its recorded viability at 2 days, 6.25 µM?
Response line: 92.4

Prompt line: Entry under review: CCCOc1ccc(Cn2cnc3ccccc32)cc1 [Compound 7355741] . Reported viability at 2 days, 6.25 µM?
Response line: 100

Prompt line: Dear colleague, I am looking for the recorded viability at 2 days, 6.25 µM of the following molecule: Cc1ccccc1OCCCCn1cnc2ccccc21 [Compound 7732524]
Response line: 100

Prompt line: Name the reported viability at 2 days, 6.25 µM value associated with the molecule Cc1nc2ccccc2n1CCOc1ccccc1Cl [Compound 5561642]
Response line: 100

###

molecular target: B. taurus (heart) complex I (Bos taurus, UniProt P03887+P17694+P42026); assay: biochemical; assay type: biochemical; conditions: heart mitochondria; read-out: B. taurus Complex I IC50
Could you mark each record MET if its IC50 falls strictly under 8 µM, and NOT MET if it equals or exceeds it?

Answered examples (5):
[
  {
    "compound": "COc1ccc(Cc2nccc3cc(OC)c(OC)cc23)cc1OC [Papaverine, reference compound]",
    "label_value": "NOT MET"
  },
  {
    "compound": "CC(C)Cc1ccc(C(C)c2nc3ccccc3n2C)cc1 (stereo not shown)",
    "label_value": "NOT MET"
  },
  {
    "compound": "COc1cc2c(cc1OC)C(C(C)c1ccc(CC(C)C)cc1)=NCC2 (stereo not shown)",
    "label_value": "NOT MET"
  },
  {
    "compound": "COc1cc2c(cc1OC)C(/C=C/c1ccc(N(C)C)cc1)=NCC2",
    "label_value": "NOT MET"
  },
  {
    "compound": "CC(C)(C)c1ccc(CCOc2ncnc3ccccc23)cc1 [Fenazaquin, reference compound]",
    "label_value": "MET"
  }
]

Prompt line: Does this compound meet the criterion IC50 < 8 µM? Cc1nn(C)c(Oc2ccccc2)c1C=NOCc1ccc(C(=O)OC(C)(C)C)cc1 [Fenpyroximate, reference compound]
Response line: MET

Prompt line: API: query returns whether the compound falls strictly under 8 µM in IC50. Query: COc1cc2c(cc1OC)C(c1ccc(-c3ccc(Cl)c(Cl)c3)o1)=NCC2
Response line: NOT MET
